test details: Quantum yield measurements
Type: physicochemical
condition summary: referred to Rhodamine B in EtOH, excitation 510 nm, emission integrated 540-800 nm
measurement label: φ (quantum yield)
When you answer, write just the number.

Check out these entries, answers already filled in.
# compound string, reading
data = [
    ("Cc1cc(/C=C/c2ccc(C(C)C)cc2)n2c1C(CCN)=C1C=CC=[N+]1[B-]2(F)F", 0.71),
    ("CC1=CC(/C=C/c2cccc(I)c2)=[N+]2C1=C(CCN)c1cccn1[B-]2(F)F", 0.31),
    ("CC1=CC(/C=C/c2ccccc2OC(F)(F)F)=[N+]2C1=C(CCN)c1cccn1[B-]2(F)F", 0.24),
    ("Cc1cc(/C=C/c2ccc(-c3cccs3)s2)n2c1C(CCN)=C1C=CC=[N+]1[B-]2(F)F", 0.11),
    ("CC1=CC(/C=C/c2ccc(SC(F)(F)F)cc2)=[N+]2C1=C(CCN)c1cccn1[B-]2(F)F", 0.51),
    ("COc1cc(/C=C/C2=[N+]3C(=C(CCN)c4cccn4[B-]3(F)F)C(C)=C2)cc(Br)c1OC", 0.35),
]

For the next question, use this molecule.
# return recorded φ (quantum yield) for entry CC1=CC(/C=C/c2ccc3c(c2)OC(F)(F)O3)=[N+]2C1=C(CCN)c1cccn1[B-]2(F)F 0.61

====

test details: Spectroscopic properties of the BDM library (absorbance and emission maxima)
Type: physicochemical
measurement label: λmax (EM) (nm)
Response body: numeric value in nm, unit text excluded.

Sample answers from the record:
# compound string, unit symbol, λmax (EM)
records = [
    ("CC1=CC(/C=C/c2cccc(C=O)c2)=[N+]2C1=C(CCN)c1cccn1[B-]2(F)F", "nm", 563),
    ("CC1=CC(/C=C/c2cccc(OC(F)(F)C(F)F)c2)=[N+]2C1=C(CCN)c1cccn1[B-]2(F)F", "nm", 564),
    ("COc1cccc(/C=C/C2=[N+]3C(=C(CCN)c4cccn4[B-]3(F)F)C(C)=C2)c1", "nm", 564),
    ("CC1=CC(/C=C/c2c(Cl)ccc(C)c2F)=[N+]2C1=C(CCN)c1cccn1[B-]2(F)F", "nm", 566),
    ("CC1=CC(/C=C/c2cccc(O)c2Cl)=[N+]2C1=C(CCN)c1cccn1[B-]2(F)F", "nm", 567),
    ("CC1=CC(/C=C/c2cccc(N3CCCC3)c2[N+](=O)[O-])=[N+]2C1=C(CCN)c1cccn1[B-]2(F)F", "nm", 687),
    ("CC1=CC(/C=C/c2c(C)cc(C)cc2C)=[N+]2C1=C(CCN)c1cccn1[B-]2(F)F", "nm", 573),
    ("Cc1cc(/C=C/c2ccc(-c3cccs3)s2)n2c1C(CCN)=C1C=CC=[N+]1[B-]2(F)F", "nm", 634),
]

Given CC1=CC(/C=C/c2ccc(Oc3ccc(F)cc3)cc2)=[N+]2C1=C(CCN)c1cccn1[B-]2(F)F , respond with its λmax (EM). 577

====

Items are presented alongside their recorded λmax (EM).
test details: Spectroscopic properties of the BDM library (absorbance and emission maxima)
Format: physicochemical
Write the answer as a number in nm, unit excluded.

# compound string, unit symbol, λmax (EM)
measured = [
    ("Cc1cc(/C=C/c2ccc(Cl)cc2)n2c1C(CCN)=C1C=CC=[N+]1[B-]2(F)F", "nm", 567),
]

Provide only the value of recorded λmax (EM) for CCOc1c(/C=C/C2=[N+]3C(=C(CCN)c4cccn4[B-]3(F)F)C(C)=C2)cccc1OC 569

Read off the recorded λmax (EM) for COc1ccc(Oc2ccc(/C=C/C3=[N+]4C(=C(CCN)c5cccn5[B-]4(F)F)C(C)=C3)cc2)cc1 577

Output λmax (EM) of COc1c(/C=C/C2=[N+]3C(=C(CCN)c4cccn4[B-]3(F)F)C(C)=C2)cc(C(C)(C)C)cc1C(C)(C)C 573

Identify the reported λmax (EM) for the following entry. COc1ccc(/C=C/C2=[N+]3C(=C(CCN)c4cccn4[B-]3(F)F)C(C)=C2)cc1Br 582

Return the recorded λmax (EM) value; entry: CC1=CC(/C=C/c2ccc3c(c2)OCO3)=[N+]2C1=C(CCN)c1cccn1[B-]2(F)F 584

Identify measured λmax (EM) corresponding to COc1ccc(F)cc1/C=C/C1=[N+]2C(=C(CCN)c3cccn3[B-]2(F)F)C(C)=C1 572

State its λmax (EM) for this molecule: COc1ccc(/C=C/c2cc(C)c3n2[B-](F)(F)[N+]2=CC=CC2=C3CCN)c(Cl)c1O 579

The reported measurements were obtained from patent US9267949B2.
